- assay.system: 15-LOX-1 (Homo sapiens, UniProt P16050)
- Sequence (P16050 whole entry): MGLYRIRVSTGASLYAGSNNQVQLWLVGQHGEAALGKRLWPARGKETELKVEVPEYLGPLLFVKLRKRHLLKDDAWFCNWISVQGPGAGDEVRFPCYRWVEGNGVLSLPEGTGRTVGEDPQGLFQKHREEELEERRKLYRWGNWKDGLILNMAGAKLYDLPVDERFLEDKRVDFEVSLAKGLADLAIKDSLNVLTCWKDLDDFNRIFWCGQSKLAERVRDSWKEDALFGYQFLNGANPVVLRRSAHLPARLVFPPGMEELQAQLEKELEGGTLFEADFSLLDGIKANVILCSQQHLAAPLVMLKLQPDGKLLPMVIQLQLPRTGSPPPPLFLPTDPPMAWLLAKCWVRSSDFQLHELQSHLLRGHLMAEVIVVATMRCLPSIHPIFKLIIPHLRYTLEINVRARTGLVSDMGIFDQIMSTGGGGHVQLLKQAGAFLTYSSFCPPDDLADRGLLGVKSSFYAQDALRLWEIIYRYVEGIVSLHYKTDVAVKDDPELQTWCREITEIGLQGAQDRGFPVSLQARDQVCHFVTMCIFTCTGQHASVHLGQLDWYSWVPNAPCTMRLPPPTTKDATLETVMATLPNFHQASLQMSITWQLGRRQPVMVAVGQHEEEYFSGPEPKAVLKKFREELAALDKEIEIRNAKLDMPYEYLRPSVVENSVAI
- assay.info: Human LOX isozyme specificity screen, 15-LOX-1
- Type: biochemical
- measurement.conditions: 25 μM inhibitor, 10 μM AA
Note to self: values exactly at 60% are Y. So single-point screen inhibition percentage, 15-LOX-l at or above 60% is Y, below is N.

CC/C(=C(\c1ccccc1)c1ccc(OCCN(C)C)cc1)c1ccccc1 [NCGC00024928]	Y
CN[C@H]1CC[C@@H](c2ccc(Cl)c(Cl)c2)c2ccccc21.Cl [NCGC00092386]	N
O=C1NCN(c2ccccc2)C12CCN(CCCC(c1ccc(F)cc1)c1ccc(F)cc1)CC2 [NCGC00015424]	Y
CC(C)(C)c1ccc(C(=O)CCCN2CCC(OC(c3ccccc3)c3ccccc3)CC2)cc1 [NCGC00164603]	Y

Input: // inclusive: single-point screen inhibition percentage, 15-LOX-l at least 60%? input: Fc1ccc(C(OCCN2CCN(CCCc3ccccc3)CC2)c2ccc(F)cc2)cc1 [NCGC00015300]
Output: Y

====

# single-point screen inhibition percentage, 15-LOX-2 per entry
- assay.system: 15-LOX-2 (Homo sapiens, UniProt O15296)
- Sequence (O15296 whole entry): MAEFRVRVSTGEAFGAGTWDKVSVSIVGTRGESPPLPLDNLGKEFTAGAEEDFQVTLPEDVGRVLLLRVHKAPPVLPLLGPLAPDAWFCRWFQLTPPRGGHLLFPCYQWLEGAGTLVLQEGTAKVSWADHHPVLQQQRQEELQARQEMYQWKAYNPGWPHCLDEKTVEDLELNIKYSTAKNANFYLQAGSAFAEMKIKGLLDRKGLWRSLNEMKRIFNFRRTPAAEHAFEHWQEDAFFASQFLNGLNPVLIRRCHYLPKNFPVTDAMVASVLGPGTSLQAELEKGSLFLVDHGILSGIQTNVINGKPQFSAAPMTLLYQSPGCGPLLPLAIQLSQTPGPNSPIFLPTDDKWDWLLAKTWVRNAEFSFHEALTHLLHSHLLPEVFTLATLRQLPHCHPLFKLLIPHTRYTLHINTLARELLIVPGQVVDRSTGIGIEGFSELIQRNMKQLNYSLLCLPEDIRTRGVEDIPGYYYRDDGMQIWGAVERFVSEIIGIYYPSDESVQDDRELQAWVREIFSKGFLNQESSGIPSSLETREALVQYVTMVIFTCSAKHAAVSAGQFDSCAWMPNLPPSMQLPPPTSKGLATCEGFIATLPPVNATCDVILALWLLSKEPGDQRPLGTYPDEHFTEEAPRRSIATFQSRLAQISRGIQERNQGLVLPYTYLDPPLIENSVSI
- assay.info: Human LOX isozyme specificity screen, 15-LOX-2
- Type: biochemical
- measurement.conditions: 25 μM inhibitor, 10 μM AA
Response body: numeric value in %, unit text excluded.

Below: 5 compounds and their reported single-point screen inhibition percentage, 15-LOX-2.
COC(=O)[C@H]1[C@H]2C[C@@H]3c4[nH]c5cc(OC)ccc5c4CCN3C[C@H]2C[C@@H](OC(=O)c2cc(OC)c(OC)c(OC)c2)[C@@H]1OC	5
CN[C@H]1CC[C@@H](c2ccc(Cl)c(Cl)c2)c2ccccc21.Cl	5
Fc1ccc(C(c2ccc(F)cc2)N2CCN(C/C=C\c3ccccc3)CC2)cc1	0
O=C(CCCCCN1CCN(c2ccccc2-c2ccccc2)CC1)NC1CCCc2ccccc21 (stereo not shown)	5
CC/C(=C(\c1ccccc1)c1ccc(OCCN(C)C)cc1)c1ccccc1	8

compound CC(C)(C)c1ccc(C(=O)CCCN2CCC(OC(c3ccccc3)c3ccccc3)CC2)cc1 , single-point screen inhibition percentage, 15-LOX-2 observed: 0

compound Fc1ccc(C(OCCN2CCN(CCCc3ccccc3)CC2)c2ccc(F)cc2)cc1 , single-point screen inhibition percentage, 15-LOX-2 observed: 13

compound O=c1[nH]c2ccccc2n1C1CCN(CCCC(c2ccc(F)cc2)c2ccc(F)cc2)CC1 , single-point screen inhibition percentage, 15-LOX-2 observed: 16

compound Nc1ncnc2c1c(-c1ccc(Oc3ccccc3)cc1)cn2C1CCCC1 , single-point screen inhibition percentage, 15-LOX-2 observed: 0

compound O=C1NCN(c2ccccc2)C12CCN(CCCC(c1ccc(F)cc1)c1ccc(F)cc1)CC2 , single-point screen inhibition percentage, 15-LOX-2 observed: 21

====

- assay.system: UniProt:P09917
- Sequence (P09917 1-674): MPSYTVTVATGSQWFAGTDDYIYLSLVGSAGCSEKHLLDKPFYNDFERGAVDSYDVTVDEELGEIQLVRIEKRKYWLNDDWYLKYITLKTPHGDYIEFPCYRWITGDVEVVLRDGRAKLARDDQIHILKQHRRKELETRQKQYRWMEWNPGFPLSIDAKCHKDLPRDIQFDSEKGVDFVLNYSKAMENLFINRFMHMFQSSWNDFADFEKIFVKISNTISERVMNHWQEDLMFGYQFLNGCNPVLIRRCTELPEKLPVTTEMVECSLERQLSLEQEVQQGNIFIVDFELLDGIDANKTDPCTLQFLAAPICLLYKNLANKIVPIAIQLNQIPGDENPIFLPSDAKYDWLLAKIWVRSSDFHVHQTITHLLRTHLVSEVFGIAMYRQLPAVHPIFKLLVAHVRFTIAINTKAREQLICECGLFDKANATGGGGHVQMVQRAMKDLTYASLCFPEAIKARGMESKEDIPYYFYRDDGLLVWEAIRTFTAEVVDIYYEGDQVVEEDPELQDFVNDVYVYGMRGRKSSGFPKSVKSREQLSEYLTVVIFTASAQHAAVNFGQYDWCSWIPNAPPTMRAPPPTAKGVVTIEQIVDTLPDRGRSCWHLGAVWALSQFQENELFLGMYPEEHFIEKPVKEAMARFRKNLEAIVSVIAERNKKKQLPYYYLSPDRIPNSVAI
- assay.info: Human LOX isozyme specificity screen, 5-LOX
- Assay type: biochemical
- measurement.conditions: 25 μM inhibitor, 10 μM AA
Note to self: values exactly at 80% are 1. So single-point screen inhibition percentage, 5-LOX at or above 80% is 1, below is 0.

A selection of reference data follows.
Nc1ncnc2c1c(-c1ccc(Oc3ccccc3)cc1)cn2C1CCCC1	0
CC(C)(C)c1ccc(C(=O)CCCN2CCC(OC(c3ccccc3)c3ccccc3)CC2)cc1	0
COC(=O)[C@H]1[C@H]2C[C@@H]3c4[nH]c5cc(OC)ccc5c4CCN3C[C@H]2C[C@@H](OC(=O)c2cc(OC)c(OC)c(OC)c2)[C@@H]1OC	0

# next molecule below
Input: // inclusive: single-point screen inhibition percentage, 5-LOX at least 80%? input: CN[C@H]1CC[C@@H](c2ccc(Cl)c(Cl)c2)c2ccccc21.Cl
Output: 1

====

- assay.system: 12-LOX (Homo sapiens, UniProt P18054)
- Sequence (P18054 whole entry): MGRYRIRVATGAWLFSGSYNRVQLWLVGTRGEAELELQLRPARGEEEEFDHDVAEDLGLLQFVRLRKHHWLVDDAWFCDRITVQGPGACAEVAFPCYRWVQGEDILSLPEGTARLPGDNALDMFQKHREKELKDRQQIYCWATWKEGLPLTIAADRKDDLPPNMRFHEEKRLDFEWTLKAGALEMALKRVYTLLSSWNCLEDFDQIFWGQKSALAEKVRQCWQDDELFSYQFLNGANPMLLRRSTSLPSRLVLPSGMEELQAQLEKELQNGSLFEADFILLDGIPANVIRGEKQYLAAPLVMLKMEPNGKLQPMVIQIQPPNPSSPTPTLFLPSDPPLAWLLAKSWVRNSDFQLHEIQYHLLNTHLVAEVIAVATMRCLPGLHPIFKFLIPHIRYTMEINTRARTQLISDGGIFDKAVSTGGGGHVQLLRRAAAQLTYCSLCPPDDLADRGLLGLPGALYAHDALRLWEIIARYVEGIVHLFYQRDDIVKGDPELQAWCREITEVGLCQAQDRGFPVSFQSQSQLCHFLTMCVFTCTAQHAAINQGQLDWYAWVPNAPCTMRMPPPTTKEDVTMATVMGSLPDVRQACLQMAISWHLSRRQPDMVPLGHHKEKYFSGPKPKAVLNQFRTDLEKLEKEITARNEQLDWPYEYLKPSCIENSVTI
- assay.info: Human LOX isozyme specificity screen, 12-LOX
- Type: biochemical
- measurement.conditions: 25 μM inhibitor, 10 μM AA
quantity.measured: single-point screen inhibition percentage, 12-LOX (%)
Response body: numeric value in %, unit text excluded.

COC(=O)[C@H]1[C@H]2C[C@@H]3c4[nH]c5cc(OC)ccc5c4CCN3C[C@H]2C[C@@H](OC(=O)c2cc(OC)c(OC)c(OC)c2)[C@@H]1OC	23
O=C(CCCCCN1CCN(c2ccccc2-c2ccccc2)CC1)NC1CCCc2ccccc21 (stereo not shown)	36
Nc1ncnc2c1c(-c1ccc(Oc3ccccc3)cc1)cn2C1CCCC1	38

Now let's try a different one.
Form field, single-point screen inhibition percentage, 12-LOX with 12-LOX (Homo sapiens, UniProt P18054), item Fc1ccc(C(OCCN2CCN(CCCc3ccccc3)CC2)c2ccc(F)cc2)cc1 : 48

====

# single-point screen inhibition percentage, 15-LOX-l per entry
- assay.system: 15-LOX-1 (Homo sapiens, UniProt P16050)
- assay.info: Human LOX isozyme specificity screen, 15-LOX-1
- Format: biochemical
- measurement.conditions: 25 μM inhibitor, 10 μM AA
Response body: numeric value in %, unit text excluded.

Below: 3 compounds and their reported single-point screen inhibition percentage, 15-LOX-l.
Fc1ccc(C(c2ccc(F)cc2)N2CCN(C/C=C\c3ccccc3)CC2)cc1 [NCGC00018102]	65
O=c1[nH]c2ccccc2n1C1CCN(CCCC(c2ccc(F)cc2)c2ccc(F)cc2)CC1 [NCGC00015802]	69
Nc1ncnc2c1c(-c1ccc(Oc3ccccc3)cc1)cn2C1CCCC1 [NCGC00015280]	51

compound O=C(CCCCCN1CCN(c2ccccc2-c2ccccc2)CC1)NC1CCCc2ccccc21 (centres unmarked) [NCGC00186032] , single-point screen inhibition percentage, 15-LOX-l observed: 57

compound COC(=O)[C@H]1[C@H]2C[C@@H]3c4[nH]c5cc(OC)ccc5c4CCN3C[C@H]2C[C@@H](OC(=O)c2cc(OC)c(OC)c(OC)c2)[C@@H]1OC [NCGC00091250] , single-point screen inhibition percentage, 15-LOX-l observed: 57

====

- assay.system: 5-LOX (Homo sapiens, UniProt P09917)
- assay.info: Human LOX isozyme specificity screen, 5-LOX
- Format: biochemical
- measurement.conditions: 25 μM inhibitor, 10 μM AA
quantity.measured: single-point screen inhibition percentage, 5-LOX (%)
Response body: numeric value in %, unit text excluded.

compound O=C(CCCCCN1CCN(c2ccccc2-c2ccccc2)CC1)NC1CCCc2ccccc21 (stereo not drawn) , single-point screen inhibition percentage, 5-LOX observed: 78

compound CC/C(=C(\c1ccccc1)c1ccc(OCCN(C)C)cc1)c1ccccc1 , single-point screen inhibition percentage, 5-LOX observed: 79

compound O=C1NCN(c2ccccc2)C12CCN(CCCC(c1ccc(F)cc1)c1ccc(F)cc1)CC2 , single-point screen inhibition percentage, 5-LOX observed: 74

compound O=c1[nH]c2ccccc2n1C1CCN(CCCC(c2ccc(F)cc2)c2ccc(F)cc2)CC1 , single-point screen inhibition percentage, 5-LOX observed: 80

compound Fc1ccc(C(OCCN2CCN(CCCc3ccccc3)CC2)c2ccc(F)cc2)cc1 , single-point screen inhibition percentage, 5-LOX observed: 41

compound Fc1ccc(C(c2ccc(F)cc2)N2CCN(C/C=C\c3ccccc3)CC2)cc1 , single-point screen inhibition percentage, 5-LOX observed: 96
